Each recorded value in this set is attributed to patent US8512703B2.

target_under_test: T1, Class I HLA molecule A*0201 in recombinant form
T1 construct: also called HLA-A*0201
T1 MHC heavy: not shown
assay_comment: iTopia ELISA-like peptide-HLA binding
measured_quantity: Bond results (%)
Just the number in %, nothing appended.

Here is how some binders turned out for Bond results.
# binder, Bond results (%)
rows = [
    ("RLLIYGASS [VK3-20 peptide No 46 RLLIYGASS]", 24),
    ("LIYGASSRA [VK3-20 peptide No 48 LIYGASSRA]", 32),
    ("VLTQSPGTL [VK3-20 peptide No 3 VLTQSPGTL]", 23),
    ("VYYCQQYGS [VK3-20 peptide No 86 VYYCQQYGS]", 1),
    ("QQYGSSPRT [VK3-20 peptide No 90 QQYGSSPRT]", 12),
    ("IVLTQSPGT [VK3-20 peptide No 2 IVLTQSPGT]", 22),
]

Recorded Bond results (binder SYLAWYQQK [VK3-20 peptide No 32 SYLAWYQQK] ): 10

Recorded Bond results (binder TQSPGTLSF [VK3-20 peptide No 5 TQSPGTLSF] ): 3

Recorded Bond results (binder LLIYGASSR [VK3-20 peptide No 47 LLIYGASSR] ): 33

Recorded Bond results (binder SPRTFGQGT [VK3-20 peptide No 95 SPRTFGQGT] ): 0

Recorded Bond results (binder KPGQAPRLL [VK3-20 peptide No 40 KPGQAPRLL] ): 2

Recorded Bond results (binder GQAPRLLIY [VK3-20 peptide No 42 GQAPRLLIY] ): 10

Recorded Bond results (binder YLAWYQQKP [VK3-20 peptide No 33 YLAWYQQKP] ): 41

Recorded Bond results (binder RTFGQGTKV [VK3-20 peptide No 97 RTFGQGTKV] ): 30

Recorded Bond results (binder RLEPEDFAV [VK3-20 peptide No 78 RLEPEDFAV] ): 19

Recorded Bond results (binder SQIVSSSYL [VK3-20 peptide No 26 SQIVSSSYL] ): 24
